# system.under.test: GABAA receptors (Rattus norvegicus, UniProt P18508+P62813+P63138)
# Construct: Single pyramidal neurons from the hippocampal CA3 area or Purkinje cells from sagittal slices of the cerebellum were isolated; endogenous in cells; host or cells: acutely isolated Purkinje cells from cerebellar slices of Wistar rats, 11-14 days old
# Sequence (P62813 28-455): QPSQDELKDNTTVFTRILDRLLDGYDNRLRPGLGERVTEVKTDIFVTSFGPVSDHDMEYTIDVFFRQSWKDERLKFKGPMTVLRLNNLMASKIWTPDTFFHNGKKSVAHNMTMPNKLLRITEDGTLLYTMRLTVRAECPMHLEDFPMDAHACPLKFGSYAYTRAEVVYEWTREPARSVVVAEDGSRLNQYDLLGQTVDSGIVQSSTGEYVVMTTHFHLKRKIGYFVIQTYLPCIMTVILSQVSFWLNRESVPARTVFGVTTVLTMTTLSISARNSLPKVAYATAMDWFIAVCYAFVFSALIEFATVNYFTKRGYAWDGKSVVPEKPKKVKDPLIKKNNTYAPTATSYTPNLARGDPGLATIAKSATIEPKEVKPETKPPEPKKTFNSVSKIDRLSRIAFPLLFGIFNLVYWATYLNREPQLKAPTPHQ
# Sequence (P63138 25-474 limits assumed): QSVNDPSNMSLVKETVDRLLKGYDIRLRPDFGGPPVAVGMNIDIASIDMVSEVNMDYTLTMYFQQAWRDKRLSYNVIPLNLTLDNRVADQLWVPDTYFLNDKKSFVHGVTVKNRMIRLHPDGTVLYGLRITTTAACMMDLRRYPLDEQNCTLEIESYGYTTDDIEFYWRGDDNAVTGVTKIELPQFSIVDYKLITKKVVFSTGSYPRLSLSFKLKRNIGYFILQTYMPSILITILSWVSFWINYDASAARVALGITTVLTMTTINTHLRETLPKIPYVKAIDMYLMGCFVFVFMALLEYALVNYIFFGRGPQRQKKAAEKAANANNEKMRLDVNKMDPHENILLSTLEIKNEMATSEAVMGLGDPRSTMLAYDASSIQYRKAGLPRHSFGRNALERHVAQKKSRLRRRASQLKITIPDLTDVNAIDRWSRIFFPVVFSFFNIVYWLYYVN
# Sequence (P18508 39-466): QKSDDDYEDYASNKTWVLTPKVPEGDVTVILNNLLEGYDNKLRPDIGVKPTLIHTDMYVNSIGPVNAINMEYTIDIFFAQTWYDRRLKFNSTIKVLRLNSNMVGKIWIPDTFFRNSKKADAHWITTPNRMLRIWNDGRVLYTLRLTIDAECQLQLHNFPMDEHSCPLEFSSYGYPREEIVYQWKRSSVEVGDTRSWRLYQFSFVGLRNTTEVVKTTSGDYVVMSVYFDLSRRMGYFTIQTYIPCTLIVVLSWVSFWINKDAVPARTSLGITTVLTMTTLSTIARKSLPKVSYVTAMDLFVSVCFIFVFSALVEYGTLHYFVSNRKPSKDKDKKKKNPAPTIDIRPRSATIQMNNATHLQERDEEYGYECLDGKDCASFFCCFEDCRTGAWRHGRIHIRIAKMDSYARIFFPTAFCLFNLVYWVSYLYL
# Type: cell-based

compound: C[C@]12CCC(=O)C[C@@H]1CC[C@@H]1[C@@H]2CC[C@]2(C)C(=O)CC[C@@H]12 [Compound 6, 5α-Androstane-3,17-dione]
system.under.test: GABAA receptors (Rattus norvegicus, UniProt P18508+P62813+P63138)
τdes IGABA (effect in words): ^cNo effect
//
compound: C[C@]12CCC(=O)C[C@@H]1CC[C@@H]1[C@@H]2CC[C@]2(C)[C@@H](O)CC[C@@H]12 [Compound 3, 17β-Hydroxy-5α-androstan-3-one]
system.under.test: GABAA receptors (Rattus norvegicus, UniProt P18508+P62813+P63138)
τdes IGABA (effect in words): ^cNo effect
//
compound: C[C@]12CCC(=O)C[C@H]1CC[C@@H]1[C@@H]2CC[C@]2(C)C(=O)CC[C@@H]12 [Compound 9, 5β-Androstane-3,17-dione]
system.under.test: GABAA receptors (Rattus norvegicus, UniProt P18508+P62813+P63138)
τdes IGABA (effect in words): ^cNo effect
